System: influenza virus A/Zhenxing1109/2010
PROTOCOL: microbe, parasite or virus in culture
Assay type: cell-based
EXPERIMENTAL PARAMETERS: unidentified influenza virus, MDCK, 72 h, read-out: EC50 influenza virus A/Zhenxing1109/2010 (ZX1109-MDCK)
REPORTED ENDPOINT: pEC50
Formally, pEC50 is defined as -log10 of the concentration c, with c in mol/L.

Enquiry: pEC50 for CCn1c(CO)nn(-c2cc(O[C@@H](C)C(F)(F)F)c(C(=O)Nc3c(F)cccc3Cl)cc2F)c1=O ?
Return: 7.40

---

Tested on: Vero cells
PROTOCOL: Cytotoxicity test of the drug, enterovirus example (CellTiter-Glo)
Format: cell-based
EXPERIMENTAL PARAMETERS: enterovirus table; cell line not given
REPORTED ENDPOINT: CC50

Enquiry: What value of CC50 on Vero cells does CCn1c(CO)nn(-c2cc(O[C@@H](C)C(F)(F)F)c(C(=O)Nc3c(F)cccc3Cl)cc2F)c1=O have?
Return: > 300 µM

---

PROTOCOL: Cytotoxicity test of the drug on MDCK (CellTiter-Glo)
Type: cell-based
EXPERIMENTAL PARAMETERS: dog, MDCK cells
REPORTED ENDPOINT: CC50 at 72 h (nM)
State the answer as a number, implicitly in nM.

Enquiry: Return reported CC50 at 72 h; argument: CCn1c(CO)nn(-c2cc(O[C@@H](C)C(F)(F)F)c(C(=O)Nc3c(F)cccc3Cl)cc2F)c1=O
Return: 270

---

PROTOCOL: Cytotoxicity test of drug, CCK-8 kit
Assay type: cell-based
EXPERIMENTAL PARAMETERS: African green monkey; Vero E6 cells; CCK-8; 48 hours
REPORTED ENDPOINT: CC50 at 48 h (µM)
Expressed in µM, but write only the number.

Enquiry: State the recorded CC50 at 48 h for this entry: CCn1c(CO)nn(-c2cc(O[C@@H](C)C(F)(F)F)c(C(=O)Nc3c(F)cccc3Cl)cc2F)c1=O
Return: 199
